test: Example 2: effect of a 400 mg single dose of ketoconazole on PK of an 8-day regimen of 300 mg or 600 mg OD mifepristone, moderate fat breakfast; assay type: in vivo, human; settings: male, human, plasma, oral, MIFE 600 mg/d, C2 Day 8, + 400 mg Keto single dose; read-out: AUCt (AUC0-24 hours, mean)
readoutLabel: AUC(0-t)

Qu. Report AUC(0-t) for CC#C[C@]1(O)CC[C@H]2[C@@H]3CCC4=CC(=O)CCC4=C3[C@@H](c3ccc(N(C)C)cc3)C[C@@]21C [mifepristone] please.
Ans. 69100 ng·h/mL

----------
Test: Example 2: effect of a 400 mg single dose of ketoconazole on PK of an 8-day regimen of 300 mg or 600 mg OD mifepristone, moderate fat breakfast
Format: in vivo, human
Conditions: male, human, plasma, oral, MIFE 600 mg/d, C2 Day 8, + 400 mg Keto single dose; read-out: Tmax (median)
Protocol: This was an open-label study in healthy male subjects. […] The 400 mg single dose of ketoconazole was given to all subjects on day 8. METHODOLOGY: Twelve subjects were enrolled, six in Cohort 1 and 6 in Cohort 2. Subjects were discharged on Day 11. […] Additionally, comparisons were made between the PK results of cohort 1 and 2. Pharmacokinetic parameters Cmax, T1/2 and total AUC were calculated for plasma concentrations of ketoconazole following the single dose on Day 8. […]
readoutLabel: Tmax (h)
Answer in h, number only, no unit symbol.

Qu. Report Tmax for CC#C[C@]1(O)CC[C@H]2[C@@H]3CCC4=CC(=O)CCC4=C3[C@@H](c3ccc(N(C)C)cc3)C[C@@]21C please.
Ans. 4

----------
assay: Example 2: effect of a 400 mg single dose of ketoconazole on PK of an 8-day regimen of 300 mg or 600 mg OD mifepristone, moderate fat breakfast; assay type: in vivo, human; details: male, human, plasma, oral, MIFE 600 mg/d, C2 Day 8, + 400 mg Keto single dose
readoutLabel: Cmax
In your response, the unit should come after the numeric value.

Qu. Report Cmax for CC#C[C@]1(O)CC[C@H]2[C@@H]3CCC4=CC(=O)CCC4=C3[C@@H](c3ccc(N(C)C)cc3)C[C@@]21C [mifepristone] please.
Ans. 5260 ng/mL

----------
Experiment: Example 2: effect of a 400 mg single dose of ketoconazole on PK of an 8-day regimen of 300 mg or 600 mg OD mifepristone, moderate fat breakfast
Format: in vivo, human
Settings: male, human, plasma, oral, 600 mg/d, MIFE 600 mg/d, C2 Day 7, no ketoconazole
Description: This was an open-label study in healthy male subjects. […] The 400 mg single dose of ketoconazole was given to all subjects on day 8. METHODOLOGY: Twelve subjects were enrolled, six in Cohort 1 and 6 in Cohort 2. Subjects were discharged on Day 11. […] Additionally, comparisons were made between the PK results of cohort 1 and 2. Pharmacokinetic parameters Cmax, T1/2 and total AUC were calculated for plasma concentrations of ketoconazole following the single dose on Day 8. […]
readoutLabel: Cmax (ng/mL)
Answer in ng/mL, number only, no unit symbol.

Qu. Report Cmax for CC#C[C@]1(O)CC[C@H]2[C@@H]3CCC4=CC(=O)CCC4=C3[C@@H](c3ccc(N(C)C)cc3)C[C@@]21C please.
Ans. 3820

----------
assay: Example 1: effect of oral ketoconazole (400 mg OD or 200 mg BID) on plasma pharmacokinetics of a 300 mg single dose of mifepristone, fasted; type: in vivo, human; conditions: male, human, plasma, oral, MIFE 300 mg single dose fasted + Keto 400 mg OD (Cohort 1), plasma
readoutLabel: Cmax (ng/mL)
Answer in ng/mL, number only, no unit symbol.

Qu. Report Cmax for CC#C[C@]1(O)CC[C@H]2[C@@H]3CCC4=CC(=O)CCC4=C3[C@@H](c3ccc(N(C)C)cc3)C[C@@]21C please.
Ans. 3400

----------
Assay: Example 1: effect of oral ketoconazole (400 mg OD or 200 mg BID) on plasma pharmacokinetics of a 300 mg single dose of mifepristone, fasted
Assay type: in vivo, human
Conditions: male, human, plasma, oral, MIFE 300 mg single dose fasted + Keto 200 mg BID (Cohort 2); read-out: Tmax (median)
From the text: This study was an open-label study in healthy male subjects. Healthy male volunteers between the ages of 18 to 45 years of age with a body mass index (BMI) ranging between 19 and 32 kg/m2 and a weight of at least 60 kg (132 lbs) were enrolled. Subjects had no clinically significant abnormal findings on the physical examination, ECG, blood pressure, heart rate, medical history, or clinical laboratory results during screening. The QTc interval at screening was less than 450 msec. […]
readoutLabel: Tmax (h)
Answer in h, number only, no unit symbol.

Qu. Report Tmax for CC#C[C@]1(O)CC[C@H]2[C@@H]3CCC4=CC(=O)CCC4=C3[C@@H](c3ccc(N(C)C)cc3)C[C@@]21C [mifepristone] please.
Ans. 1

----------
Assay: Example 2: effect of a 400 mg single dose of ketoconazole on PK of an 8-day regimen of 300 mg or 600 mg OD mifepristone, moderate fat breakfast
Format: in vivo, human
Conditions: male, human, plasma, oral, 300 mg/d, MIFE 300 mg/d, C1 Day 7, no ketoconazole
Method: This was an open-label study in healthy male subjects. […] The 400 mg single dose of ketoconazole was given to all subjects on day 8. METHODOLOGY: Twelve subjects were enrolled, six in Cohort 1 and 6 in Cohort 2. Subjects were discharged on Day 11. […] Additionally, comparisons were made between the PK results of cohort 1 and 2. Pharmacokinetic parameters Cmax, T1/2 and total AUC were calculated for plasma concentrations of ketoconazole following the single dose on Day 8. […]
readoutLabel: Cmax

Qu. Report Cmax for CC#C[C@]1(O)CC[C@H]2[C@@H]3CCC4=CC(=O)CCC4=C3[C@@H](c3ccc(N(C)C)cc3)C[C@@]21C [mifepristone] please.
Ans. 2700 ng/mL

----------
assay: Example 2: effect of a 400 mg single dose of ketoconazole on PK of an 8-day regimen of 300 mg or 600 mg OD mifepristone, moderate fat breakfast; assay type: in vivo, human; settings: male, human, plasma, oral, 600 mg/d, MIFE 600 mg/d, C2 Day 7, no ketoconazole; read-out: Tmax (median)
readoutLabel: Tmax (h)
Answer in h, number only, no unit symbol.

Qu. Report Tmax for CC#C[C@]1(O)CC[C@H]2[C@@H]3CCC4=CC(=O)CCC4=C3[C@@H](c3ccc(N(C)C)cc3)C[C@@]21C please.
Ans. 4

----------
test: Example 2: effect of a 400 mg single dose of ketoconazole on PK of an 8-day regimen of 300 mg or 600 mg OD mifepristone, moderate fat breakfast; assay type: in vivo, human; conditions: male, human, plasma, oral, MIFE 300 mg/d, C1 Day 8, + 400 mg Keto single dose
readoutLabel: Cmax (ng/mL)
Answer in ng/mL, number only, no unit symbol.

Qu. Report Cmax for CC#C[C@]1(O)CC[C@H]2[C@@H]3CCC4=CC(=O)CCC4=C3[C@@H](c3ccc(N(C)C)cc3)C[C@@]21C please.
Ans. 3240

----------
assay: Example 3: Phase 1 study of ketoconazole 200 mg twice daily with mifepristone 600 mg once daily with food, plasma PK incl. cross-study comparison; assay type: in vivo, human; conditions: Test: Day 17 600 mg mifepristone OD + 200 mg Ketoconazole BID; Reference: Day 12 600 mg mifepristone OD
Answer each item with its documented Cmax Ratio % Test/Reference (geometric mean ratio).
Answer in %, number only, no unit symbol.

Qu. Report Cmax Ratio % Test/Reference (geometric mean ratio) for CC#C[C@]1(O)CC[C@H]2[C@@H]3CCC4=CC(=O)CCC4=C3[C@@H](c3ccc(NC)cc3)C[C@@]21C [RU 42633] please.
Ans. 105.73

Qu. Report Cmax Ratio % Test/Reference (geometric mean ratio) for CC#C[C@]1(O)CC[C@H]2[C@@H]3CCC4=CC(=O)CCC4=C3[C@@H](c3ccc(N)cc3)C[C@@]21C [RU 42848] please.
Ans. 95.48

Qu. Report Cmax Ratio % Test/Reference (geometric mean ratio) for CN(C)c1ccc([C@H]2C[C@@]3(C)[C@@H](CC[C@@]3(O)C#CCO)[C@@H]3CCC4=CC(=O)CCC4=C32)cc1 [RU 42698] please.
Ans. 169.13

Qu. Report Cmax Ratio % Test/Reference (geometric mean ratio) for CC#C[C@]1(O)CC[C@H]2[C@@H]3CCC4=CC(=O)CCC4=C3[C@@H](c3ccc(N(C)C)cc3)C[C@@]21C [mifepristone] please.
Ans. 127.59

----------
experiment: Example 1: effect of oral ketoconazole (400 mg OD or 200 mg BID) on plasma pharmacokinetics of a 300 mg single dose of mifepristone, fasted; format: in vivo, human; conditions: male, human, plasma, oral, MIFE 300 mg single dose fasted + Keto 400 mg OD (Cohort 1); read-out: T1/2 (mean) (converted)
readoutLabel: half-life (h)
Answer in h, number only, no unit symbol.

Qu. Report half-life for CC#C[C@]1(O)CC[C@H]2[C@@H]3CCC4=CC(=O)CCC4=C3[C@@H](c3ccc(N(C)C)cc3)C[C@@]21C please.
Ans. 37.1
